- System: human kisspeptin receptor (Homo sapiens (Human), UniProt Q969F8)
- Sequence (Q969F8 whole entry): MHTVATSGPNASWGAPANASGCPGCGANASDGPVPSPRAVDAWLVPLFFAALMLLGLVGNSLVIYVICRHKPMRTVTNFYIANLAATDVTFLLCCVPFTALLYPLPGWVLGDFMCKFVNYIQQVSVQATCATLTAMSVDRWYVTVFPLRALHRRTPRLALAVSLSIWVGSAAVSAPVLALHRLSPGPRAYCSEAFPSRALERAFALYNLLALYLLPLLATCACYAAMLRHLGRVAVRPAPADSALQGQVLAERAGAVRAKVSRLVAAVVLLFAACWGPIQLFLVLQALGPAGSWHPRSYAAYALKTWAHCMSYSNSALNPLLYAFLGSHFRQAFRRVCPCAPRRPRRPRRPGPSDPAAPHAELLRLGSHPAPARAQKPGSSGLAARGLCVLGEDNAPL
- Assay explanation: Human KISS1R binding assay (membrane competition binding)
- Measurement conditions: 90 min at room temperature; competition with 0.2 nM [125I]-metastin (45-54); Flp-In T-Rex 293 kisspeptin membranes; metal complexes nonradioactive Ga, In, Lu; read-out: hKiSSR Binding Ki (90 min)
Square brackets hold non-standard residues; d marks the D form. Peptide text beside a SMILES is read from it. * marks the point of attachment. DOTA = O=C(O)CN1CCN(CC(=O)O)CCN(CC(=O)*)CCN(CC(=O)O)CC1; Gly(N-(3-F-4-Me-benzyl)) = Cc1ccc(CNCC(=O)*)cc1F; Api(1-amidino) = N=C(N)N1CCC(N)(C(=O)O)CC1; 2Nal = N[C@@H](Cc1ccc2ccccc2c1)C(=O)O; 4Pal = N[C@@H](Cc1ccncc1)C(=O)O; d4Pal = N[C@H](Cc1ccncc1)C(=O)O; 4Amb = NCc1ccc(C(=O)O)cc1; Api = NC1(C(=O)O)CCNCC1; Ahx = NCCCCCC(=O)O; azaGly = NNC(=O)O
Documented Ki across a set of molecules

Consider the worked cases shown below.
Cc1ccc(CNCC(=O)N2CCC(NC(=O)[C@@H](/C=C/CNC(=O)[C@H](Cc3ccccc3)NC(=O)CCCCCNC(=O)CN3CCN(CC(=O)O)CCN(CC(=O)O)CCN(CC(=O)O)CC3)CC(C)C)(C(=O)N[C@@H](Cc3c[nH]c4ccccc34)C(N)=O)CC2)cc1F [Compound 51] | < 10 nM
CC(C)C[C@H](NC(=O)NNC(=O)[C@H](Cc1ccccc1)NC(=O)c1ccc(CNC(=O)[C@H](Cc2ccc3ccccc3c2)NC(=O)[C@@H](Cc2ccc(O)cc2)NC(=O)CN2CCN(CC(=O)O)CCN(CC(=O)O)CCN(CC(=O)O)CC2)cc1)C(=O)NC1(C(=O)N[C@@H](Cc2ccccc2)C(N)=O)CCN(C(=N)N)CC1 [Compound 288] ({DOTA}-[dY][2Nal][4Amb]F[azaGly]L[Api(1-amidino)]F-NH2) | < 10 nM

Find the recorded Ki belonging to Cc1ccc(CNCC(=O)N2CCC(NC(=O)[C@H](CC(C)C)NC(=O)NNC(=O)[C@H](Cc3ccccc3)NC(=O)[C@@H](NC(=O)[C@H](CC(N)=O)NC(=O)[C@@H](Cc3ccncc3)NC(=O)[C@@H](Cc3ccc(O)cc3)NC(=O)CCCCCNC(=O)CN3CCN(CC(=O)O)CCN(CC(=O)O)CCN(CC(=O)O)CC3)[C@@H](C)O)(C(=O)N[C@@H](Cc3ccncc3)C(N)=O)CC2)cc1F [Compound 294] ({DOTA-Ahx}-[dY][d4Pal]NTF[azaGly]L[Api](Gly(N-(3-F-4-Me-benzyl)))[4Pal]-NH2) and report it.
< 10 nM

* * *

Documented pKi across a set of compounds
- System: human kisspeptin receptor (Homo sapiens (Human), UniProt Q969F8)
- Assay explanation: Human KISS1R binding assay (membrane competition binding)
- Measurement conditions: 90 min at room temperature; competition with 0.2 nM [125I]-metastin (45-54); Flp-In T-Rex 293 kisspeptin membranes; metal complexes nonradioactive Ga, In, Lu; read-out: hKiSSR Binding Ki (90 min)
pKi: −log10 of the molar value. Square brackets hold non-standard residues; d marks the D form. Peptide text beside a SMILES is read from it. * marks the point of attachment. DOTA = O=C(O)CN1CCN(CC(=O)O)CCN(CC(=O)*)CCN(CC(=O)O)CC1; Gly(N-(3-F-4-Me-benzyl)) = Cc1ccc(CNCC(=O)*)cc1F; Gly(N-3-F-4-Me-benzyl) = Cc1ccc(CNCC(=O)O)cc1F; HO(CH2CH2O)2CH2CH2CO = O=C(CCOCCOCCO)*; d2Nal = N[C@H](Cc1ccc2ccccc2c1)C(=O)O; 4Pal = N[C@@H](Cc1ccncc1)C(=O)O; Cha = N[C@@H](CC1CCCCC1)C(=O)O; Octanoyl = CCCCCCCC(=O)*; Api = NC1(C(=O)O)CCNCC1; Ahx = NCCCCCC(=O)O; azaGly = NNC(=O)O; Sar = CNCC(=O)O

Consider the worked cases shown below.
CCCCCCCC(=O)N[C@H](Cc1ccc(O)cc1)C(=O)N[C@H](CCCCNC(=O)CN1CCN(CC(=O)O)CCN(CC(=O)O)CCN(CC(=O)O)CC1)C(=O)N[C@@H](CC(N)=O)C(=O)N[C@H](C(=O)N[C@@H](CC1CCCCC1)C(=O)NNC(=O)N[C@@H](CC(C)C)C(=O)NC1(C(=O)N[C@H](Cc2c[nH]c3ccccc23)C(N)=O)CCN(C(=O)CNC)CC1)[C@@H](C)O [Compound 355] (Octanoyl-[dY][dK](DOTA)NT[Cha][azaGly]L[Api](Sar)[dW]-NH2) | > 8.00
CNCC(=O)N1CCC(NC(=O)[C@H](CC(C)C)NC(=O)NNC(=O)[C@H](Cc2ccccc2)NC(=O)[C@@H](NC(=O)[C@H](CC(N)=O)NC(=O)[C@H](CCCCNC(=O)CN2CCN(CC(=O)O)CCN(CC(=O)O)CCN(CC(=O)O)CC2)NC(=O)[C@@H](Cc2ccc(O)cc2)NC(=O)CNCc2ccc(C)c(F)c2)[C@@H](C)O)(C(=O)N[C@@H](Cc2c[nH]c3ccccc23)C(N)=O)CC1 [Compound 386] (H-[Gly(N-3-F-4-Me-benzyl)][dY]K(DOTA)NTF[azaGly]L[Api](Sar)W-NH2) | > 8.00
Cc1ccc(CNCC(=O)N2CCC(NC(=O)[C@H](CC(C)C)NC(=O)NNC(=O)[C@H](Cc3ccccc3)NC(=O)[C@@H](NC(=O)[C@H](CCCCNC(=O)CN3CCN(CC(=O)O)CCN(CC(=O)O)CCN(CC(=O)O)CC3)NC(=O)CCOCCOCCO)[C@@H](C)O)(C(=O)N[C@@H](Cc3ccncc3)C(N)=O)CC2)cc1F [Compound 251] ({HO(CH2CH2O)2CH2CH2CO}-K(DOTA)TF[azaGly]L[Api](Gly(N-(3-F-4-Me-benzyl)))[4Pal]-NH2) | < 7.00

Find the recorded pKi belonging to Cc1ccc(CNCC(=O)N2CCC(NC(=O)[C@H](CC(C)C)NC(=O)NNC(=O)[C@H](Cc3ccccc3)NC(=O)[C@@H](NC(=O)[C@H](CC(N)=O)NC(=O)[C@@H](Cc3ccc(O)cc3)NC(=O)CCCCCNC(=O)CN3CCN(CC(=O)O)CCN(CC(=O)O)CCN(CC(=O)O)CC3)[C@@H](C)O)(C(=O)N[C@@H](Cc3ccncc3)C(N)=O)CC2)cc1F [Compound 291] ({DOTA-Ahx}-[dY]NTF[azaGly]L[Api](Gly(N-(3-F-4-Me-benzyl)))[4Pal]-NH2) and report it.
> 8.00

Find the recorded pKi belonging to CNCC(=O)N1CCC(NC(=O)[C@H](CC(C)C)NC(=O)NNC(=O)[C@H](Cc2ccccc2)NC(=O)[C@@H](NC(=O)[C@H](CC(N)=O)NC(=O)[C@@H](Cc2ccc3ccccc3c2)NC(=O)[C@H](N)Cc2ccc(O)cc2)[C@@H](C)O)(C(=O)N[C@@H](Cc2ccc(O)cc2)C(N)=O)CC1 [Compound 407] (H-[dY][d2Nal]NTF[azaGly]L[Api](Sar)Y-NH2) and report it.
> 8.00

Hey, just so you know, these numbers are from patent US20250312499A1.
